- Test summary: xn = mol fraction of the nth substance listed
- Details: 298.15 K; 101.3 kPa; Liquid; Concentric cylinders viscometry; x1 = 0.5
Result type: viscosity (mPa·s)
Value expressed in mPa·s; do not type the unit.

Exercise: Sample CCCCCCCC(=O)[O-].CC[NH+](C(C)C)C(C)C [N-ethyl-N-isopropylpropan-2-aminium octanoate] + CC#N — what was its viscosity?
Solution: 6.897

Exercise: Please give the measured viscosity for this compound: CCCCCCCC(=O)[O-].CC[NH+](C(C)C)C(C)C [N-ethyl-N-isopropylpropan-2-aminium octanoate] + O
Solution: 27.62

Exercise: Can you share its viscosity? I mean this compound: CCCCCCC(=O)[O-].CC[NH+](C(C)C)C(C)C [N-ethyl-N-isopropylpropan-2-aminium heptanoate] + O
Solution: 26.92

Exercise: Quick check: viscosity of CCCCCCC(=O)[O-].CC[NH+](C(C)C)C(C)C [N-ethyl-N-isopropylpropan-2-aminium heptanoate] + CC#N ?
Solution: 5.158

---

- Test summary: xn = mol fraction of the nth substance listed
- Details: 298.15 K; 101.3 kPa; Liquid; Concentric cylinders viscometry; x1 = 0.6
Kindly supply the reported viscosity values for the records listed here.
Value expressed in mPa·s; do not type the unit.

Exercise: If you can, please state the reported viscosity value of CCCCCCC(=O)[O-].CC[NH+](C(C)C)C(C)C [N-ethyl-N-isopropylpropan-2-aminium heptanoate] + CC#N .
Solution: 7.013

Exercise: Which measured viscosity value corresponds to CCCCCCCC(=O)[O-].CC[NH+](C(C)C)C(C)C [N-ethyl-N-isopropylpropan-2-aminium octanoate] + CC#N ?
Solution: 8.725

Exercise: Using the record for CCCCCCCC(=O)[O-].CC[NH+](C(C)C)C(C)C [N-ethyl-N-isopropylpropan-2-aminium octanoate] + O , report its viscosity.
Solution: 26.19

Exercise: Would you kindly share the measured viscosity for CCCCCCC(=O)[O-].CC[NH+](C(C)C)C(C)C [N-ethyl-N-isopropylpropan-2-aminium heptanoate] + O ?
Solution: 23.65

---

- Test summary: xn = mol fraction of the nth substance listed
- Details: 298.15 K; 101.3 kPa; Liquid; Concentric cylinders viscometry; x1 = 0.3
Result type: viscosity (mPa·s)
Respond with the bare value in mPa·s.

Exercise: What value of measured viscosity is listed for CCCCCCC(=O)[O-].CC[NH+](C(C)C)C(C)C [N-ethyl-N-isopropylpropan-2-aminium heptanoate] + O ?
Solution: 41.58

Exercise: Name the reported viscosity value associated with the compound CCCCCCCC(=O)[O-].CC[NH+](C(C)C)C(C)C [N-ethyl-N-isopropylpropan-2-aminium octanoate] + CC#N
Solution: 2.865

Exercise: Consider the compound shown here: CCCCCCC(=O)[O-].CC[NH+](C(C)C)C(C)C [N-ethyl-N-isopropylpropan-2-aminium heptanoate] + CC#N What is its recorded viscosity?
Solution: 2.51

Exercise: Field request: viscosity | item: CCCCCCCC(=O)[O-].CC[NH+](C(C)C)C(C)C [N-ethyl-N-isopropylpropan-2-aminium octanoate] + O
Solution: 42.39

---

- Test summary: xn = mol fraction of the nth substance listed
- Details: 298.15 K; 101.3 kPa; Liquid; Concentric cylinders viscometry; x1 = 0.4
Result type: viscosity (mPa·s)
Kindly answer with a numeric value in mPa·s, unit omitted.

Exercise: Return reported viscosity; argument: CCCCCCCC(=O)[O-].CC[NH+](C(C)C)C(C)C [N-ethyl-N-isopropylpropan-2-aminium octanoate] + CC#N
Solution: 4.921

Exercise: Item CCCCCCC(=O)[O-].CC[NH+](C(C)C)C(C)C [N-ethyl-N-isopropylpropan-2-aminium heptanoate] + O has what recorded viscosity?
Solution: 31.51

Exercise: What viscosity value was documented for this compound, CCCCCCCC(=O)[O-].CC[NH+](C(C)C)C(C)C [N-ethyl-N-isopropylpropan-2-aminium octanoate] + O ?
Solution: 32.19

Exercise: Look at this compound and give its reported viscosity. CCCCCCC(=O)[O-].CC[NH+](C(C)C)C(C)C [N-ethyl-N-isopropylpropan-2-aminium heptanoate] + CC#N
Solution: 3.875

Value source: the NIST ThermoML archive (doi:10.1021/je101191e)
